The reported measurements were obtained from patent US12180193B2.

# DC50 per entry
- system: BRAF V600E (Homo sapiens, UniProt P15056, V600E)
- Construct: expressed in transfected cells
- Sequence (P15056 whole entry V600E): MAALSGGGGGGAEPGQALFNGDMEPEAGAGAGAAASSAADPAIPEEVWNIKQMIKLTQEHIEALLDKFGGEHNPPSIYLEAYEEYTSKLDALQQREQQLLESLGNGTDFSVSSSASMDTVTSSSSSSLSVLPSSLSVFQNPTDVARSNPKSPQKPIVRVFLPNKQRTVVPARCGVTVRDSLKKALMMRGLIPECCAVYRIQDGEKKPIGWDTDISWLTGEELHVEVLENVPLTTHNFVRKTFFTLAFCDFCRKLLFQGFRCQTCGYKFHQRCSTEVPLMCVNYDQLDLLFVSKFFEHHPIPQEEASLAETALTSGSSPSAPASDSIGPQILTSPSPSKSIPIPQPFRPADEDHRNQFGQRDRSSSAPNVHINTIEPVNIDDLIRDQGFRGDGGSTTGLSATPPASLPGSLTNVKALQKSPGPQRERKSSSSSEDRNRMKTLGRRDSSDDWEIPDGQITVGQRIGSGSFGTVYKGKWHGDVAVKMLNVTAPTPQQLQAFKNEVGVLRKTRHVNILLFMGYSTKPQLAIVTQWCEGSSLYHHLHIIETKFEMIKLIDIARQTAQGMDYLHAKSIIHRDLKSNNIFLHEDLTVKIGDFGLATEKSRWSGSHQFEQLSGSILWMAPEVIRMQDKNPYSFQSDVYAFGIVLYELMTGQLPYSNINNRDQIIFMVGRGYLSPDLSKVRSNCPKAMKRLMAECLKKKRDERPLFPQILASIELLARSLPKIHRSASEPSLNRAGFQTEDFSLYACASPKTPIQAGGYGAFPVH
- assay: Cellular assay of target protein degradation, T-Rex 293 cells stably transfected with HA-BRAF_V600E (HA immunofluorescence, high content imaging)
- Type: cell-based
- measurement.setup: half maximal degradation, T-Rex 293 HA-BRAF V600E; read-out: BRaf V600E DC50
reported.metric: DC50

* COc1cc(CN2CCN(c3ccc(-c4cnc5[nH]cc(C(=O)c6c(F)ccc(NS(=O)(=O)N7CC[C@@H](F)C7)c6F)c5c4)cc3)CC2)cc2c1C(=O)N(C1CCC(=O)NC1=O)C2 (stereo partly drawn) | > 500 nM
* O=C1CCC(N2Cc3cc(N4CC(CN5CCN(C6(c7ncc(-c8cnc9[nH]cc(C(=O)c%10c(F)ccc(NS(=O)(=O)N%11CC[C@@H](F)C%11)c%10F)c9c8)cn7)CC6)CC5)C4)ccc3C2=O)C(=O)N1 (stereo partly drawn) | 50 to 500 nM
* COc1cc(N2CC(CN3CCN(c4ccc(-c5cnc6[nH]cc(C(=O)c7c(F)ccc(NS(=O)(=O)N8CC[C@@H](F)C8)c7F)c6c5)cc4)CC3)C2)cc2c1C(=O)N(C1CCC(=O)NC1=O)C2 (stereo partly drawn) | 5 to 50 nM
* COc1cc(N2CC(N3CCN(c4ccc(-c5cnc6[nH]cc(C(=O)c7c(F)ccc(NS(=O)(=O)N8CC[C@@H](F)C8)c7F)c6c5)cc4)CC3)C2)cc2c1C(=O)N(C1CCC(=O)NC1=O)C2 (stereo partly drawn) | 5 to 50 nM
* C[C@@]12CN(CC3CCN(c4ccc5c(c4)CN([C@@H]4CCC(=O)NC4=O)C5=O)CC3)C[C@@H]1CN(c1ccc(-c3cnc4[nH]cc(C(=O)c5c(F)ccc(NS(=O)(=O)N6CC[C@@H](F)C6)c5F)c4c3)cc1)C2 | 50 to 500 nM
* CN(CC1CCN(c2ccc(-c3cnc4[nH]cc(C(=O)c5c(F)ccc(NS(=O)(=O)N6CC[C@@H](F)C6)c5F)c4c3)cc2)CC1)[C@H]1C[C@@H](Oc2ccc3c(c2)CN(C2CCC(=O)NC2=O)C3=O)C1 (stereo partly drawn) | 5 to 50 nM
* O=C1CC[C@H](N2Cc3cc(OC[C@@H](O)CN4CC5(C4)CN(c4ccc(-c6cnc7[nH]cc(C(=O)c8c(F)ccc(NS(=O)(=O)N9CC[C@@H](F)C9)c8F)c7c6)cc4)C5)ccc3C2=O)C(=O)N1 | 5 to 50 nM
* COc1cc(N2CC3(CN(CC4CCN(c5ccc(-c6cnc7[nH]cc(C(=O)c8c(F)ccc(NS(=O)(=O)N9CC[C@@H](F)C9)c8F)c7c6)cc5)CC4)C3)C2)ccc1C(=O)N[C@H]1CCC(=O)NC1=O | 5 to 50 nM
* O=C1CCC(c2ccc(C3CCN(CC4CCN(c5ccc(-c6cnc7[nH]cc(C(=O)c8c(F)ccc(NS(=O)(=O)N9CC[C@@H](F)C9)c8F)c7c6)cc5)CC4)CC3)cn2)C(=O)N1 (stereo partly drawn) | 5 to 50 nM
* O=C1CCC(N2Cc3cc(N4CC(CN5CCC(C6(c7ncc(-c8cnc9[nH]cc(C(=O)c%10c(F)ccc(NS(=O)(=O)N%11CC[C@@H](F)C%11)c%10F)c9c8)cn7)CC6)CC5)C4)ccc3C2=O)C(=O)N1 (stereo partly drawn) | 50 to 500 nM
* CC(C)N(C)S(=O)(=O)Nc1ccc(F)c(C(=O)c2c[nH]c3ncc(-c4ccc(N5CCC(CN6CCC(c7ccc8c(c7)CN([C@H]7CCC(=O)NC7=O)C8=O)CC6)CC5)cc4)cc23)c1F | 5 to 50 nM
* O=C1CCC(N2Cc3cc(OCCCOC4CCN(c5ccc(-c6cnc7[nH]cc(C(=O)c8c(F)ccc(NS(=O)(=O)N9CC[C@@H](F)C9)c8F)c7c6)cc5)CC4)ccc3C2=O)C(=O)N1 (stereo partly drawn) | 50 to 500 nM
* O=C1CCC(N2Cc3cc(C4CCN(CCC5CCN(c6ccc(-c7cnc8[nH]cc(C(=O)c9c(F)ccc(NS(=O)(=O)N%10CC[C@@H](F)C%10)c9F)c8c7)cc6)CC5)CC4)ccc3C2=O)C(=O)N1 (stereo partly drawn) | < 5 nM
* O=C1CCC(N2Cc3cc(N4CC(N5C[C@H]6C[C@@H]5CN6c5ccc(-c6cnc7[nH]cc(C(=O)c8c(F)ccc(NS(=O)(=O)N9CC[C@@H](F)C9)c8F)c7c6)cc5)C4)ccc3C2=O)C(=O)N1 (stereo partly drawn) | > 500 nM
* O=C1CC[C@@H](N2Cc3cc(N4CC[C@@H](COc5ccc(-c6cnc7[nH]cc(C(=O)c8c(F)ccc(NS(=O)(=O)N9CC[C@@H](F)C9)c8F)c7c6)cc5)C4)ccc3C2=O)C(=O)N1 | > 500 nM
* CCCS(=O)(=O)Nc1ccc(F)c(-n2cc(-c3cncnc3)c3nc(N(C)C4CCN(C(=O)CCOCCOCCOCCOCCNc5cccc6c5C(=O)N(C5CCC(=O)NC5=O)C6=O)CC4)ccc32)c1F (stereo not drawn) | 50 to 500 nM
* O=C1CC[C@H](NC(=O)c2ccc(N3CC4(CN(CC5CCN(c6ccc(-c7cnc8[nH]cc(C(=O)c9c(F)ccc(NS(=O)(=O)N%10CCC(F)(F)C%10)c9F)c8c7)cc6)CC5)C4)C3)cc2F)C(=O)N1 | 5 to 50 nM
* COc1cc(C2CCN(CC3CC4(C3)CN(c3ccc(-c5cnc6[nH]cc(C(=O)c7c(F)ccc(NS(=O)(=O)N8CC[C@@H](F)C8)c7F)c6c5)cc3)C4)CC2)cc2c1C(=O)N(C1CCC(=O)NC1=O)C2 (stereo partly drawn) | 5 to 50 nM
